target: SRPK2 (human); experiment: KINOMEscan competition binding; conditions: compound 10.0 µM
Each record here notes measured kinase still bound, per cent of control.

COMPOUND	kinase still bound, per cent of control, %
O=C1Nc2ccc(I)cc2/C1=C/c1cc(Br)c(O)c(Br)c1	87
CC[C@@H]1C(=O)N(C)c2cnc(Nc3ccc(C(=O)NC4CCN(C)CC4)cc3OC)nc2N1C1CCCC1	100
C=CC(=O)Nc1cc(NC(=O)c2ccc(C)c(NC(=O)c3ccno3)c2)cc(C(F)(F)F)c1	89
Cn1c(=O)n(-c2ccc(C(C)(C)C#N)cc2)c2c3cc(-c4cnc5ccccc5c4)ccc3ncc21	100
Cc1cc([C@@H](C)Nc2ccccc2C(=O)O)c2nc(N3CCOCC3)cc(=O)n2c1	85
COc1cc(C(=O)NC2CCN(C)CC2)ccc1Nc1ncc2c(n1)N(C1CCCC1)C(C)CC(=O)N2C (stereo not given)	100
Nc1ccc(-c2ccc3ncc4ccc(=O)n(-c5cccc(C(F)(F)F)c5)c4c3c2)cn1	100
COc1cc(C(=O)NC2CCN(C)CC2)ccc1Nc1ncc2c(n1)N(C1CCCC1)CCC(=O)N2C(C)C	100
O=C(NC1CC1)c1cccc(-c2ccc3c(NC(=O)C4CC4)n[nH]c3c2)c1	58
C[C@@H](Oc1cc(-n2cnc3ccc(CN4CCN(C)CC4)cc32)sc1C(N)=O)c1ccccc1C(F)(F)F	59
C=CC(=O)Nc1cccc(Oc2nc(Nc3ccc(N4CCN(C)CC4)cc3OC)ncc2Cl)c1	100
Cc1ccc(C(=O)Nc2cccc(C(F)(F)F)c2)cc1Nc1cncc(C(N)=O)c1	100
C=CC(=O)Nc1cccc(Nc2nc(N[C@H]3CC[C@H](N(C)C)CC3)nc3c2ncn3C(C)C)c1	92
CCN1CCN(Cc2ccc(Nc3ncc4c(n3)N(C)c3ccccc3C(=O)N4C)cc2C(F)(F)F)CC1	81
O=C(O)c1ccc(Nc2ncc3c(n2)-c2ccc(Cl)cc2C(c2c(F)cccc2F)=NC3)cc1	80
